experimental_target: Mitogen-activated protein kinase 10 (Mus musculus)
experiment_description: JNK3 AlphaScreen Assay (AID 530);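 further: kinase came from lysate of stimulated human HepG2 cells; signal reports phosphorylation of biotinylated GST-cJun 1-79 at Ser73 with 10 µM ATP; on the % scale 0 is the no-effect control and ±100 the full control effect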
conditions: JNK3 lysate, c-Jun phosphorylation; series mostly up to 25.6 µM
Results filed as inconclusive are left out. The source made the active and inactive calls. The call rests on the fitted dose curve; in most records, active means well fitted curve in either direction with a large enough effect (not every such curve was filed as active); inconclusive means small, poorly fitted or top-dose-only effect, or another doubt; inactive means flat fitted curve, though single readings scatter.
value_kind: outcome

Below are worked cases with known answers.
Clc1ccc([C@H](Cn2ccnc2)OCc2csc3c(Cl)cccc23)c(Cl)c1 = inactive
CO/N=C(\C(=O)N[C@@H]1C(=O)N2C(C(=O)O)=C(COC(N)=O)CS[C@@H]12)c1ccco1 = inactive
CC(=O)OCC(=O)[C@@]1(O)CC[C@@H]2[C@H]3CCC4=CC(=O)C=C[C@]4(C)[C@]3(F)[C@@H](O)C[C@@]21C = inactive
CC(C)(C)NC(=O)[C@@H]1CC[C@@H]2[C@@H]3CC[C@@H]4NC(=O)C=C[C@@]4(C)[C@H]3CC[C@]21C = inactive
Cc1cn([C@@H]2C[C@H](N=[N+]=N)[C@H](CO)O2)c(=O)[nH]c1=O = inactive

Please give the measured outcome for this molecule: `NC(=O)N/N=C\c1ccc([N+](=O)[O-])o1`
inactive

Then what about the molecule `O=C(O)[C@@H](O)[C@@H](O)[C@@H](O[C@H]1O[C@@H](CO)[C@@H](O)[C@@H](O)[C@@H]1O)[C@@H](O)CO` ?
inactive

Then what about the molecule `CC(=C(CCOP(=O)(O)O)SC(=O)c1ccccc1)N(C=O)Cc1cnc(C)nc1N` ?
inactive

Then what about the molecule `CC(=O)OCC(=O)[C@@]1(O)CC[C@@H]2[C@H]3CCC4=CC(=O)CC[C@]4(C)[C@]3(F)[C@@H](O)C[C@@]21C` ?
inactive

Then what about the molecule `CC1(C)S[C@@H]2[C@H](NC(=O)[C@@H](N)c3ccc(O)cc3)C(=O)N2[C@H]1C(=O)O` ?
inactive

====

experiment_description: qHTS drug screen for cell cycle checkpoint inhibitors in PARPi-resistant BRCA-mutant ovarian cancer cell lines. (AID 1963452)
conditions: PEO1/OlaR viability, CellTiter-Glo luminescence, 96 h; measured here: PEO1 parental Z-AUC; stronger effect = lower value
So basically, if Z-AUC comes in under -0.7 it's MET, and if it's -0.7 or more it's NOT MET.

Consider the compound `COc1ccc(-c2ccc3c(N4CCOC[C@@H]4C)nc(N4CCOC[C@@H]4C)nc3n2)cc1CO` . Is its Z-AUC strictly less than -0.7?
NOT MET

Then what about the compound `Cc1noc(-c2ccc(-c3ccc(C4(C(=O)O)CC4)cc3)cc2)c1NC(=O)O[C@H](C)c1ccccc1` ?
NOT MET

Then what about the compound `CCCCCCCOc1ccc(CCC(N)(CO)CO)cc1C(F)(F)F` ?
MET

Then what about the compound `CCn1c(N)c(C(=O)NC)c(=O)c2ccc(C#C[C@@](C)(O)COC)nc21` ?
NOT MET

Then what about the compound `Cc1ccc(-c2nn(C(C)(C)CNC(=O)c3ccncc3)c3ncnc(N)c23)cc1` ?
MET

====

System: CP215
experiment_description: qHTS profiling for inhibitors of Plasmodium falciparum proliferation (AID 504749); further: nearly all actives have a fitted effect of over 60% in size
conditions: P. falciparum in erythrocytes, SYBR Green DNA, 72 h; series mostly up to 12.8 µM
Results filed as inconclusive are left out. Active and inactive are the calls of the source. The call rests on the fitted dose curve; in most records, active means well fitted inhibition curve with a large enough effect; inconclusive means small, poorly fitted or top-dose-only effect; inactive means flat fitted curve, though single readings scatter. Bridge positions count the residues as written; N and C are the ends. Square brackets hold non-standard residues; d marks the D form. Peptide text beside a SMILES is read from it. * marks the point of attachment. Ileψ(thiazoline)Cys = CC[C@H](C)[C@H](N)C1=N[C@H](C(=O)*)CS1; d(aIle) = CC[C@H](C)[C@@H](N)C(=O)O; dOrn = NCCC[C@@H](N)C(=O)O
Tick one outcome: active, inactive

# fetch the recorded call for `NS(=O)(=O)c1cc2c(cc1Cl)N[C@@H](CC1CCCC1)NS2(=O)=O` here
inactive

Then what about the molecule `CCOC(=O)O[C@@H](C)OC(=O)[C@@H]1N2C(=O)[C@@H](NC(=O)[C@@H](N)c3ccccc3)[C@H]2SC1(C)C` ?
inactive

Then what about the molecule `CN1CC(=O)N=C1N` ?
inactive

Then what about the molecule `C=CCN1C(=CCO)[C@H]2C[C@H]3[C@@H]1CC[C@@]31c3ccccc3N3C=C4[C@@H]5N(/C=C/2[C@H]31)c1ccccc1[C@]51CC[C@H]2[C@H]1C[C@@H]4/C(=C/CO)N2CC=C` ?
inactive

Then what about the molecule `COc1cc2nc(N3CCN(C(=O)[C@@H]4COc5ccccc5O4)CC3)nc(N)c2cc1OC` ?
inactive

Then what about the molecule CN(C)CCCOC1C(C(O)CO)OC2OC(C)(C)O[C@@H]21 (some centres not stated) ?
inactive

Then what about the molecule `CC(C)(C)NC[C@@H](O)COc1ccccc1C1CCCC1` ?
active

Then what about the molecule `CCN(CCCCOC(=O)c1ccc(OC)c(OC)c1)[C@@H](C)Cc1ccc(OC)cc1` ?
inactive

Then what about the molecule `CO[C@]1(NC(=O)[C@H](C(=O)O)c2ccc(O)cc2)C(=O)N2C(C(=O)O)=C(CSc3nnnn3C)CO[C@H]21` ?
inactive

Then what about the molecule `CC1(C)S[C@@H]2[C@H](NC(=O)[C@@H](N)c3ccccc3)C(=O)N2[C@H]1C(=O)O[C@H]1OC(=O)c2ccccc21` ?
inactive

Then what about the molecule `CC[C@](C)(CN(C)C)OC(=O)c1ccccc1` ?
inactive

Then what about the molecule CC[C@H](C)[C@H](N)C1=N[C@H](C(=O)N[C@@H](CC(C)C)C(=O)N[C@@H](CCC(=O)O)C(=O)N[C@@H](C(=O)N[C@H]2CCCCNC(=O)[C@@H](CC(N)=O)NC(=O)[C@@H](CC(=O)O)NC(=O)[C@@H](Cc3cnc[nH]3)NC(=O)[C@@H](Cc3ccccc3)NC(=O)[C@@H]([C@@H](C)CC)NC(=O)[C@@H](CCCN)NC2=O)[C@@H](C)CC)CS1 ({Ileψ(thiazoline)Cys}-LE[d(aIle)]K[dOrn][d(aIle)][dF][dH][dD][dN]; lactam 4-C) ?
inactive

Then what about the molecule `C[C@H](O)Cn1cnc2c1c(=O)n(C)c(=O)n2C` ?
inactive

Then what about the molecule CCC(CCC(C)C1CCC2C3CC=C4CC(O)CC[C@@]4(C)C3CC[C@@]12C)C(C)C (some centres not stated) ?
inactive

Then what about the molecule CCOC(=O)C1=CC(OC(CC)CC)C(NC(C)=O)C(N)C1 (configuration not stated) ?
inactive

Then what about the molecule `C[C@@H](C(=O)O)c1ccc(C(=O)c2ccccc2)s1` ?
inactive

Then what about the molecule COc1ccc2cc(C(C)CO)ccc2c1 (configuration not stated) ?
inactive

====

For each entry below, report its activity, negative = inhibition value.
experiment_description: qHTS profiling for inhibitors of Plasmodium falciparum proliferation (AID 504749); further: nearly all actives have a fitted effect of over 60% in size;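 on activity, negative = inhibition: 0% = DMSO vehicle and full inhibition = artemisinin control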
conditions: P. falciparum in erythrocytes, SYBR Green DNA, 72 h; at 28.7 µM (top of the series); parasite line A
Inconclusive results are not listed.
Please give a number only; it is taken to be in %.

Please give the measured activity, negative = inhibition for this molecule: CC[C@@]12CCCN3CCc4c(n(c5ccccc45)[C@](O)(C(=O)OC)C1)C32 (stereo not given in full)
4.65

Then what about the molecule Nc1nc2ncc(CNc3ccc(C(=O)NC(CCC(=O)O)C(=O)O)cc3)nc2c(=O)[nH]1 (stereo not given) ?
10.3

Then what about the molecule C[C@]12CCC(=O)C=C1CCC1C2C(=O)C[C@]2(C)C1CC[C@]2(O)C(=O)CO (stereo not given in full) ?
3.27

Then what about the molecule `CC(=O)N[C@H](CC(C)C)C(=O)O` ?
-8.85

Then what about the molecule OCC1OC([S-])[C@H](O)C(O)C1O.[Au+] (stereo not given in full) ?
-14

====

experiment_description: qHTS Assay for Lipid Storage Modulators (AID 1519)
conditions: Drosophila S3 cells, BODIPY lipid droplet/cell ratio, laser cytometry; measured here: lipid channel max response; cells loaded with oleic acid
Experimental: NIH Molecular Libraries Probe Production Centers Network [MLPCN] NIH Chemical Genomics Center [NCGC] Assay Submitter (PI): Beller, Mathias; Max-Planck-Institut fur Biophysikalische Chemie […] We dispensed 4 uL of cells at 1.25 x 10^6 cells/mL into LoBase Aurora COC 1,536-well plates (black walled, clear bottom) with a bottle-valve solenoid-based dispenser (Aurora) to obtain 5,000 cells/well. […] The ratio of the total intensity in PMT channel 1 over total intensity of channel 3 was also calculated. […]
Records with an inconclusive call do not appear.
value_kind: max response (%)
Please give a number only; it is taken to be in %.

Please give the measured max response for this compound: CC(=O)OC1CC(OC(C)=O)[C@]2(C)C(CC(=O)[C@]3(C)C2CC[C@@]2(C)C(C(=O)O)OC(=O)C4OC423)C1(C)C (stereo partly specified)
15.4

Then what about the compound `CC(C)(C)NC(=O)[C@@H]1CC[C@@H]2[C@@H]3CC[C@@H]4NC(=O)C=C[C@@]4(C)[C@H]3CC[C@]21C` ?
-13.3

Then what about the compound CS(=O)(=O)c1ccc(C(O)C(CO)NC(=O)C(Cl)Cl)cc1 (stereo unspecified) ?
13.6

Then what about the compound `CC[C@](C)(CN(C)C)OC(=O)c1ccccc1` ?
-16.2

Then what about the compound O=C(Oc1cc(OC(=O)c2ccccc2)c2c(c1)OC(c1ccc(OC(=O)c3ccccc3)c(OC(=O)c3ccccc3)c1)[C@@H](OC(=O)c1ccccc1)C2)c1ccccc1 (stereo partly specified) ?
15.7

Then what about the compound `NCC[C@H](O)C(=O)N[C@H]1C[C@@H](N)[C@@H](O[C@H]2O[C@@H](CN)[C@@H](O)[C@@H](O)[C@@H]2O)[C@@H](O)[C@@H]1O[C@H]1O[C@@H](CO)[C@@H](O)[C@@H](N)[C@@H]1O` ?
11.3

Then what about the compound `CC(C)(CO)[C@H](O)C(=O)NCCC(=O)O` ?
6.98

Then what about the compound `Cn1c(=O)[nH]c2nc[nH]c2c1=O` ?
22.4

Then what about the compound O=c1[nH]c(=O)c2nc(Br)n(C3OC(CO)C(O)C3O)c2[nH]1 (stereo unspecified) ?
13

Then what about the compound `CCN1CCC[C@@H](OC(=O)C(c2ccccc2)c2ccccc2)C1` ?
-10.4

Then what about the compound C=C1C(C2(C)C=CC(=O)C(C)(C)C2CC(=O)OC)CC[C@@]2(C)C(c3ccoc3)OC(=O)C3OC132 (stereo partly specified) ?
10.2

Then what about the compound CC(=O)OC1CC2C(C)(C)C(O)C=C[C@@]2(C)C2CC[C@@]3(C)C(c4ccoc4)OC(=O)C4OC43[C@]12C (stereo partly specified) ?
29.9

Then what about the compound `c1ccc(CNc2ncnc3nc[nH]c23)cc1` ?
-12.9

Then what about the compound `O=c1c2ccccc2oc2ccccc12` ?
28

Then what about the compound `C[N+]12CCC(CC1)[C@@H](OC(=O)C(O)(c1ccccc1)c1ccccc1)C2` ?
-15

Then what about the compound CC1(C)CC2/C(CO)=C/C=C/[C@](C)(O)CC[C@]21O (stereo partly specified) ?
29.9

Then what about the compound `Nc1ncnc2c1nc(Br)n2[C@H]1O[C@H]2COP(=O)(O)O[C@H]2[C@@H]1O` ?
0.508

Then what about the compound `COC(=O)c1cc(OC)c(=O)c2c(OC)c(OC)ccc2c1` ?
7.78

Then what about the compound `Cc1ccccc1N1C(=O)c2cc(S(N)(=O)=O)c(Cl)cc2N[C@H]1C` ?
-3.66

Then what about the compound CC(=O)OC[C@@]1(O)C[C@]23CCC4c5ccoc5CC[C@@]4(C)C2CCC1C3 (stereo partly specified) ?
15.2

Then what about the compound `O=C1c2ccccc2C(=O)c2c(O)c(O)cc(O)c21` ?
7.97

Then what about the compound CC1(O)CC2C(CC1O)C2(C)C (stereo unspecified) ?
-2.1

Then what about the compound `C[C@@H]1C[C@@H]2[C@H]3CCC4=CC(=O)C=C[C@]4(C)[C@]3(F)[C@@H](O)C[C@]2(C)[C@@]1(O)C(=O)CO` ?
-8.18

Then what about the compound `CCCCCCCC/C=C/CCCCCCCCOP(=O)([O-])OCC[N+](C)(C)C` ?
28.9

Then what about the compound `Cc1c(O)c(=O)n(-c2ccccc2)n1C` ?
19.1

Then what about the compound CCC(C)C(=O)O[C@H]1C[C@@H](C)C=C2C=C[C@H](C)[C@H](CC[C@@H]3C[C@@H](O)CC(=O)O3)C21 (stereo partly specified) ?
13.2

Then what about the compound `CC1(C)C2CC[C@@]1(C)C(=O)C2` ?
19.8

Then what about the compound `FC(F)(F)c1ccccc1-c1ccc2ncnc(NC3CCNCC3)c2c1` ?
6.31

Then what about the compound `Nc1ccccc1S(N)(=O)=O` ?
-21.4

Then what about the compound `C[C@@H](Cc1cccc(C(F)(F)F)c1)NCCOC(=O)c1ccccc1` ?
-18.4

Then what about the compound `CO[C@H]1[C@H](O[C@H]2O[C@@H](C)[C@@H](O[C@@H]3C[C@](C)(O)[C@H](OC(=O)CC(C)C)[C@H](C)O3)[C@@H](N(C)C)[C@@H]2O)[C@@H](CC=O)C[C@@H](C)[C@@H](O)/C=C\C=C/C[C@@H](C)OC(=O)C[C@H]1OC(C)=O` ?
-14

Then what about the compound CN(C)C1C(=O)C(C(N)=O)=C(O)[C@@]2(O)C(=O)C3=C(O)c4c(O)ccc(Cl)c4C(O)[C@H]3C[C@@H]12 (stereo partly specified) ?
35.5

Then what about the compound `CC1(C)S[C@@H]2[C@H](NC(=O)[C@@H](N)c3ccccc3)C(=O)N2[C@H]1C(=O)O[C@H]1OC(=O)c2ccccc21` ?
-29.9

Then what about the compound `CC1(C)O[C@H]2C[C@@H]3[C@H]4CCC5=CC(=O)CC[C@@]5(C)[C@]4(F)[C@@H](O)C[C@@]3(C)[C@@]2(C(=O)CCl)O1` ?
-17.1

Then what about the compound CC(CCC(=O)O)C1CCC2C3CC(O)[C@@H]4CC(O)CC[C@]4(C)C3CC[C@@]12C (stereo partly specified) ?
20.4

Then what about the compound Cn1nnnc1SCC1=C(C(=O)O)N2C(=O)C(NC(=O)C(O)c3ccccc3)C2SC1 (stereo unspecified) ?
26.7
